target or test system: ΔF508 CFTR (Homo sapiens, UniProt P13569, DEL508-508)
Sequence (P13569 with tags, fused parts or gaps DEL508-508): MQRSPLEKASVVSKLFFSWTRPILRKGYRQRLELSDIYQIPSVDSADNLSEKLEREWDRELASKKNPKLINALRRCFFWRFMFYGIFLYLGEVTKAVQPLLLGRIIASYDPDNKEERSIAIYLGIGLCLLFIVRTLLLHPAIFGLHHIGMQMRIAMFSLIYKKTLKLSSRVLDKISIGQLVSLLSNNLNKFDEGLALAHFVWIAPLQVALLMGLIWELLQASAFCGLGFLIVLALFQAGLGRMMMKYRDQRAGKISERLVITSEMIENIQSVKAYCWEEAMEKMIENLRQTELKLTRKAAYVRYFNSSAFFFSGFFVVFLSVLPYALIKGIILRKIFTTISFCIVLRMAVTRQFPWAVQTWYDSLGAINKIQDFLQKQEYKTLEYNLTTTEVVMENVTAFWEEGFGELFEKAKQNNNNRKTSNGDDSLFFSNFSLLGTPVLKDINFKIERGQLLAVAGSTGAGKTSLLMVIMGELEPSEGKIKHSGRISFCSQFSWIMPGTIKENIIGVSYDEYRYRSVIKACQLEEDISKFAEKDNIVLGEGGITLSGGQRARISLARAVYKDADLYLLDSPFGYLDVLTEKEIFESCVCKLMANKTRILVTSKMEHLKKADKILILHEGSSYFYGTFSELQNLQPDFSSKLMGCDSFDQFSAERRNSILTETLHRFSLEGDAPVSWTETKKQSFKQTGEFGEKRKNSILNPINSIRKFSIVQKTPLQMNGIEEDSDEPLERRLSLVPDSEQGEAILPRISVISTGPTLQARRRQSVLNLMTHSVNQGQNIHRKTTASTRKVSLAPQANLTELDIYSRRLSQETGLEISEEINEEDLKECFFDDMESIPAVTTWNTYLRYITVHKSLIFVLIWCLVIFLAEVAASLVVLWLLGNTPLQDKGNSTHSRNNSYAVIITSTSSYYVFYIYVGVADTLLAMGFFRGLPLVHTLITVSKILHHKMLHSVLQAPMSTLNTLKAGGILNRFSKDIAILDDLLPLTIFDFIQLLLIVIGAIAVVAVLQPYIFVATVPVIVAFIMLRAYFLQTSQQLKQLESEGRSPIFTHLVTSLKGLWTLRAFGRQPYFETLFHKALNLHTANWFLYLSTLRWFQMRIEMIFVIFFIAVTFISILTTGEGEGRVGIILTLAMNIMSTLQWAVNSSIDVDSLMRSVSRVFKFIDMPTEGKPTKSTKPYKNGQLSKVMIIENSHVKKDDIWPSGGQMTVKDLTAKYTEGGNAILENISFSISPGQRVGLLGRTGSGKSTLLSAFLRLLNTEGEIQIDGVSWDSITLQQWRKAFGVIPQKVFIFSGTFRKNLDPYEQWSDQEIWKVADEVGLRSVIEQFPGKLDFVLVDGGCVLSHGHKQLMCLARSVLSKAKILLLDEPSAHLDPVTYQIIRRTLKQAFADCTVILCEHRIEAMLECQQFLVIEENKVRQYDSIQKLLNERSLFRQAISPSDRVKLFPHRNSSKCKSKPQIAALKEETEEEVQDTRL
assay summary: Potentiator activity, YFP halide (iodide) quenching assay in FRT cells expressing ΔF508 CFTR, 27° C. pre-incubation
Assay type: cell-based
Set-up: expressed in transfected cells; host or cells: Fischer rat thyroid (FRT) cells
experimental setup: FRT cells ΔF508 CFTR/YFP, 24 hours at 27° C., compound with forskolin 30 min
pEC50: −log10 of the molar value.
This section presents compounds with their documented pEC50 values.

Recorded results for 8 compounds are shown here.
CC(C)(C)n1nc(Sc2cccc(C(F)(F)F)c2)c2c(N)ncnc21 = 5.00 to 5.30
CC(C)(C)n1nc(Oc2cccc(F)c2)c2c(N)ncnc21 = > 5.70
CC(=O)Nc1ncnc2c1c(-c1ccc(F)cc1)nn2C(C)(C)C = < 4.82
CC(=O)N1CC(n2cc(Cc3cccc4ccccc34)c3c(N)ncnc32)C1 = < 4.82
Nc1ncnc2c1c(-c1ccc(Cl)cc1)cn2CC1CC1 = 5.30 to 5.70
Nc1ncnc2c1c(Oc1cccc(Cl)c1)nn2CC(F)F = < 4.82
CCn1nc(Sc2cccc(Cl)c2)c2c(N)ncnc21 = > 5.70
CC(C)(C)OC(=O)N1CC(n2nc(Oc3ccccc3)c3c(N)ncnc32)C1 = 5.00 to 5.30

[Q] What does the data say about its pEC50? Entry: COC(=O)c1cnc2c(c(-c3ccc(C)cc3)nn2C(C)(C)C)c1N
[A] < 4.82

[Q] And CC(C)Cn1nc(-c2ccc(Cl)cc2)c2c(N)ncnc21 ?
[A] 5.00 to 5.30

[Q] And CC(C)(C)n1nc(Oc2cccc3cccnc23)c2c(N)ncnc21 ?
[A] < 4.82

[Q] And Nc1ncnc2c1c(-c1ccc(Cl)cc1)nn2[C@H]1CCOC1 ?
[A] < 4.82

[Q] And CCn1nc(Sc2ccccc2F)c2c(N)ncnc21 ?
[A] < 4.82

[Q] And CCn1cc(-c2ccc(C)cc2)c2c(N)cccc21 ?
[A] < 4.82

[Q] And COC(=O)Nc1ncnc2c1c(-c1ccc(Cl)cc1)nn2C(C)(C)C ?
[A] < 4.82

[Q] And Nc1ncnc2c1c(-c1ccc(Cl)cc1)cn2CC1CCC1 ?
[A] 5.30 to 5.70

[Q] And CCn1nc([S+]([O-])c2cccc(F)c2)c2c(N)ncnc21 (stereo not shown) ?
[A] < 4.82

[Q] And CCn1nc(Sc2cccc(OC(F)(F)F)c2)c2c(N)ncnc21 ?
[A] < 4.82

====

This section presents molecules with their documented EC50 values.
target or test system: ΔF508 CFTR (Homo sapiens, UniProt P13569, DEL508-508)
assay summary: Corrector activity, YFP halide (iodide) quenching assay in FRT cells expressing ΔF508 CFTR
Type: cell-based
Set-up: expressed in transfected cells; host or cells: Fischer rat thyroid (FRT) cells
experimental setup: FRT cells ΔF508 CFTR/YFP, 24 hours with compound at 37° C., forskolin and genistein; read-out: Corrector EC50

CC(C)(C)n1nc(Oc2cccnc2)c2c(N)ncnc21 [compound 183] = > 15 µM
CC(C)(C)n1nc(O)c2c(N)ncnc21 [compound 325] = > 15 µM
CC(C)(C)n1nc(Oc2cccc(-c3ccccc3)c2)c2c(N)ncnc21 [compound 190] = 5 to 10 µM
CC(C)(C)n1nc(Oc2ccccc2F)c2c(N)ncnc21 [compound 197] = 5 to 10 µM
CC(=O)N1CC(n2nc([S+]([O-])c3ccccc3)c3c(N)ncnc32)C1 (centres unmarked) [compound 404] = > 15 µM

[Q] Give ΔF508 CFTR (Homo sapiens, UniProt P13569, DEL508-508) EC50 for Cc1cccc(-c2nn(C(C)(C)C)c3ncnc(N)c23)c1 [compound 104]
[A] > 15 µM

[Q] And C=CCn1nc(-c2ccc(Cl)cc2)c2c(N)ncnc21 [compound 32] ?
[A] > 15 µM

[Q] And CCn1nc([S+]([O-])c2ccc(C)cc2)c2c(N)ncnc21 (centres unmarked) [compound 291] ?
[A] > 15 µM

[Q] And CC(C)C(=O)Nc1ncnc2c1cnn2C(C)(C)C [compound 390] ?
[A] > 15 µM

[Q] And CC(C)(C)OC(=O)N1CC(n2nc(Oc3ccccc3)c3c(N)ncnc32)C1 [Compound No. 341] ?
[A] > 15 µM

[Q] And CCn1nc(Sc2ccc(C)cc2)c2c(N)ncnc21 [compound 255] ?
[A] > 15 µM
